system: calf thymus DNA; test: Absorption spectra of dye bound to calf thymus DNA; assay type: binding; details: pH 7.4 + DNA, ratio of 50 DNA base pairs per dye molecule or greater
quantity_kind: λA (absorption maximum), bound to DNA (nm)

C[n+]1c(C=C2C=CN(CCC[N+](C)(C)C)C=C2)sc2ccccc21 [Compound 2]: 462
C[n+]1c(C=CC=C2C=CN(CCC[N+](C)(C)C)c3ccccc32)sc2ccccc21 [Compound 8]: 642
C[n+]1c(C=C2C=CN(CCC[N+](C)(C)C)C=C2)oc2ccccc21 [Compound 1]: 435
C[n+]1c(C=CC=CC=C2C=CN(CCC[N+](C)(C)C)C=C2)oc2ccccc21 [Compound 5]: 532
